- run description: probe aWnt5a binding to arrayed compounds – biochemical, biotinylated probe, 635/667 nm fluorescence, primary screen (AID 1113);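 note: score merges 667 nm fluorescence intensity with signal-to-noise per printed feature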
- cond: small-molecule microarray, higher = more signal
value kind: composite z-score
Lab note: record just the number, no unit beside it.

Recorded composite z-score (compound CCOC(=O)C[C@H]1[C@H](OC(=O)c2ccc(-c3ccccc3)cc2)[C@@H](NC(=O)CC(C)C)c2cc(OCCCO)ccc2N1C(=O)c1ccc2ccccc2n1 ): -0.0678

Recorded composite z-score (compound NCCCCCCNC(=O)[C@@H]1C[C@@H]2C(=O)N[C@@H](CCCCN)C(=O)N2[C@@H]1c1ccc(O)cc1 ): -0.172

Recorded composite z-score (compound COC(=O)[C@@]1(Cc2ccc(OC)cc2)[C@H]2c3cc(C(=O)N4CCCC4)n(CCc4c[nH]c5ccc(O)cc45)c3C[C@H]2CN1C(=O)c1ccccc1 ): 0.14

Recorded composite z-score (compound Cc1ccc(S[C@]2(C(=O)NCC(F)(F)F)CC(=O)N(Cc3cc(C(F)(F)F)cc(C(F)(F)F)c3)[C@@H]2c2ccc(CO)cc2)cc1 ): -0.25

Recorded composite z-score (compound CO[C@H]1O[C@H](CO)[C@@H](OC(=O)Nc2ccc3c(c2)OCO3)[C@H](OC(=O)Nc2ccc3c(c2)OCO3)[C@@H]1OC(=O)Nc1ccc2c(c1)OCO2 ): 0.0618

Recorded composite z-score (compound O=C1NC(=O)C2C1C=CC(C(O)c1ccco1)N2Nc1ccc(Cl)cc1Cl (configuration not stated) ): -0.152

Recorded composite z-score (compound C=CCN1C(=O)[C@]2(CCS(=O)(=O)c3ccccc3)N=C(c3ccc(OCCCO)cc3)O[C@@H]2c2ccccc21 ): -0.0268

* * *

- run description: growth of efflux-deficient E. coli DRC39 – strain DRC39, OD650, 48 h, E. coli filamentation inducers, primary screen (AID 1179);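 note: screen aims at cell division blockers that make cells filament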
- cond: E. coli DRC39 delta-acrAB growth, higher = more signal, called active from +8 up or from −8 down
For each of the molecules below, state its z-score.
Lab note: record just the number, no unit beside it.

Recorded z-score (molecule O=C1C2C=CC(C(O)c3ccco3)N(Nc3ccccc3F)C2C(=O)N1c1ccccc1 (centres undefined) ): -0.921

Recorded z-score (molecule Cc1ccc(F)cc1S(=O)(=O)N[C@@H]1CCN(Cc2ccc(Br)cc2)C1 ): -0.795

Recorded z-score (molecule COc1ccc([Si](C)(C)[C@@H]2[C@@H](CC(=O)N(CCO)Cc3ccccc3)O[C@]3(C(=O)N(Cc4cccc(N5CCCCC5=O)c4)c4ccccc43)[C@H]2C)cc1 ): 0.246

Recorded z-score (molecule C=CCNC(=O)[C@H]1[C@@H]2C(=O)O[C@@H](c3ccccc3)[C@@H](c3ccccc3)N2[C@@H](c2ccccc2OCCO)[C@]12C(=O)N(C(=O)OCCOC)c1ccc(C#CC3(O)CCCCCC3)cc12 ): 0.975

Recorded z-score (molecule CCOC(=O)C[C@H]1[C@H](OC(=O)c2cc3ccccc3oc2=O)[C@@H](NC(=O)c2ccc3ccccc3n2)c2cc(OCCCO)ccc2N1C(=O)Cc1ccc(OC)cc1 ): 0.0535

Recorded z-score (molecule O=C(NCc1ccc(F)cc1)[C@H]1C[C@H]2C(=O)NCC(=O)N2[C@H]1c1ccc(O)cc1 ): -0.806

Recorded z-score (molecule COc1ccc(C(=O)Nc2ccc(CN3C(=O)[C@]4(O[C@H](CC(=O)N5Cc6ccccc6C[C@H]5CO)[C@@H]([Si](C)(C)c5ccc(OC)cc5)[C@@H]4C)c4ccccc43)cc2)cc1 ): -1.09

Recorded z-score (molecule CCCCN1CC=CC23O[C@@H]4/C=C\CCC(C)OC(=O)C4[C@H]2C(=O)N(CCCO)[C@@H]3C1=O (some centres undefined) ): -0.154

Recorded z-score (molecule COc1ccc(C#Cc2ccc3c(c2)[C@]2(C(=O)N3)[C@H](c3ccc(O)cc3)N3[C@H](c4ccccc4)[C@H](c4ccccc4)OC(=O)[C@H]3[C@@H]2C(=O)Nc2nc3ccccc3s2)cc1 ): 0.0227

Recorded z-score (molecule Cc1ccc(N2C(=O)c3ccccc3[C@@H](C(=O)NCCCN(C)C)[C@@H]2c2ccc(CO)cc2)nc1 ): 0.327

Recorded z-score (molecule [N-]=[N+]=Nc1ccccc1C[C@]1(C(=O)NCCN2CCOCC2)COC(c2ccc(OCCCO)cc2)=N1 ): 0.361

Recorded z-score (molecule CCCCC(=C=CC[C@H](O)c1ccc(OCCO)cc1)CCO ): -1.06

Recorded z-score (molecule C=CCNC(=O)[C@@H]1[C@H]2C(=O)O[C@H](c3ccccc3)[C@H](c3ccccc3)N2[C@H](c2ccccc2OCCO)[C@@]12C(=O)N(C(=O)OCCOC)c1ccc(C#CC3(O)CCCCCC3)cc12 ): -0.609

Recorded z-score (molecule COc1ccc([Si](C)(C)[C@@H]2[C@@H](CCO)O[C@]3(C(=O)N(Cc4ccccc4)c4ccc(N5CCOC5=O)cc43)[C@H]2C)cc1 ): -0.978
